src = the supplement of paper PMC10266784

B1: library; numbered along this chain (parent)
chain: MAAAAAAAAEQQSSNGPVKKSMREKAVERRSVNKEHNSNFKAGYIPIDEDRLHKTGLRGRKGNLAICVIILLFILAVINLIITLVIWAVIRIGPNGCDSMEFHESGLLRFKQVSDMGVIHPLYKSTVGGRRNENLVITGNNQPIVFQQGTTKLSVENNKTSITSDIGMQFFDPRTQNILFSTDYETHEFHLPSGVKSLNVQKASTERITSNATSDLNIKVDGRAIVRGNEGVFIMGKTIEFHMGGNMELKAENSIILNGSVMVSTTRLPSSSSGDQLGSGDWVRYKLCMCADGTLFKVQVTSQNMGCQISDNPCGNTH

# Variants of: B1
# assay: SGCB cell-surface expression functional score (HA stain, bin4 vs bin1, normalised to synonymous) (log10 ratio); higher = more cell-surface SGCB (functional)
Assign a class from recorded SGCB cell-surface expression functional score (log10); defined classes: low bin (below -0.3), mid bin (-0.3 to below 0.2), high bin (0.2 or more)

Use the examples below as a reference point.
mutation_id | answer_label
N134K | mid bin
G259T | high bin
M100G | low bin

Exercise: read the entry W282G and state which class it falls under.
high bin

Exercise: read the entry S270N and state which class it falls under.
mid bin

Exercise: read the entry G315Q and state which class it falls under.
mid bin

Exercise: read the entry F180S and state which class it falls under.
low bin

Exercise: read the entry S193H and state which class it falls under.
high bin

Exercise: read the entry G16A and state which class it falls under.
low bin
